Listed binders paired with reported koff
- test-system: T1, FLAG-tagged human latent TGF-beta 1 (human, UniProt P01137 34-390)
- T1 construct: Co-expressed with human furin, purified on anti-FLAG resin and by gel filtration; also called human latent TGF-beta 1 (SLC); hSLC
- protocol-text: SPR (BIACORE), antibody captured on anti-human Fc, antigen as analyte, pH 7.4
Your answer is read as s⁻¹, so omit the unit and give the number.

Illustrative cases are given below, each with its answer.
>>> measured_value("hT0947AE22-SG181 (antibody, human IgG1, kappa, V domains shown, Human IgG1; Heavy chain = VH + CH, light chain = VL + CL) VH: QVQLVESGGGVVQPGRSLRLSCAASGFHFSREAMNWIRQPPGKGLEWIGYIYTSGTTYRANWARGRFTISRDNSKNTLYLQMNSLRAEDTAVYYCARGWHIFGHHYWVMHFWGQGTLVTVSS VL: DIQMTQSPSSLSASVGDRVTITCQASQSISTYLAWYQQKPGQPPKLLIYAASTLESGVPSRFSGSGSGTDFTLTISSLQPEDFATYYCQSYSDGDSVIFGQGTKVEIKR")
0.00124
>>> measured_value("hT0947AE25-SG181 (antibody, human IgG1, kappa, V domains shown, Human IgG1; Heavy chain = VH + CH, light chain = VL + CL) VH: QVQLVESGGGVVQPGRSLRLSCAASGFHFSNEAMNWIRQPPGKGLEWIGYIYTSGTTYRSNWARGRFTISRDNSKNTLYLQMNSLRAEDTAVYYCARGWHIFGHQYWVMHFWGQGTLVTVSS VL: DIQMTQSPSSLSASVGDRVTITCQASQSISTYEAWYQQKPGQPPKLLIYAASTLESGVPSRFSGSGSGTDFTLTISSLQPEDFATYYCQSYSDGDSVGFGQGTKVEIKR")
0.00152
>>> measured_value("hT0947AE23-SG181 (antibody, human IgG1, kappa, V domains shown, Human IgG1; Heavy chain = VH + CH, light chain = VL + CL) VH: QVQLVESGGGVVQPGRSLRLSCAASGFHFSREAMNWIRQPPGKGLEWIGYIYTSGTTYRANWARGRFTISRDNSKNTLYLQMNSLRAEDTAVYYCARGTHLFGHHYWVMHSWGQGTLVTVSS VL: DIQMTQSPSSLSASVGDRVTITCQASQSISTYLAWYQQKPGQPPKLLIYAASTLEYGVPSRFSGSGSGTDFTLTISSLQPEDFATYYCQSYSDGDSVVFGQGTKVEIKR")
0.00108
>>> measured_value("hT0947AE24-SG181 (antibody, human IgG1, kappa, V domains shown, Human IgG1; Heavy chain = VH + CH, light chain = VL + CL) VH: QVQLVESGGGVVQPGRSLRLSCAASGFHFSSEAMNWIRQPPGKGLEWIGYIYTSGTTYRANWARGRFTISRDNSKNTLYLQMNSLRAEDTAVYYCARGWHIFGHHYWVMHFWGQGTLVTVSS VL: DIQMTQSPSSLSASVGDRVTITCQASQSISTYLAWYQQKPGQPPKLLIYAASTLEWGVPSRFSGSGSGTDFTLTISSLQPEDFATYYCQSYSDGDSVGFGQGTKVEIKR")
0.001

Summary for this binder, hT0947AE26-SG181 (antibody, human IgG1, kappa, V domains shown, Human IgG1; Heavy chain = VH + CH, light chain = VL + CL) VH: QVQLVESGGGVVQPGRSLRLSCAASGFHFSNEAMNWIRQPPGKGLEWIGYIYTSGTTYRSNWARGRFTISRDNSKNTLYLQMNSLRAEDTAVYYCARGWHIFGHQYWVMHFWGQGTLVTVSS VL: DIQMTQSPSSLSASVGDRVTITCQASQSISTYEAWYQQKPGQPPKLLIYAASTLESGVPSRFSGSGSGTDFTLTISSLQPEDFATYYCQSYSDGDSVKFGQGTKVEIKR : koff is 0.0012

The values you see were collected from patent US20240376190A1.
